Assay: Log P determination (n-octanol/water, FAAS)
PARAMETER_MEASURED: logP

Hello, please tell me recorded logP for this one: CC[P+](CC)(CC)[Au-]1[SH](CC2O[C@H](O[C@H]3OC(COC(C)=O)[C@@H](OC(C)=O)C(OC(C)=O)[C@H]3OC(C)=O)C(OC(C)=O)[C@@H](OC(C)=O)[C@@H]2OC(C)=O)[Au]1[PH](CC)(CC)CC (stereo partly shown) [Compound 7]
-0.28

---

Assay: Log P determination (n-octanol/water, FAAS)
Conditions: Log P, n-octanol/water, gold by FAAS
# logP per record follows

These recorded examples may help you get a feel for the data.
CC[P+](CC)(CC)[Au-][S]CCO [Compound 24] = 1.19
CC[P+](CC)(CC)[Au-][S]c1ccc(SCC(=O)NC2[C@H](OC(C)=O)OC(COC(C)=O)[C@@H](OC(C)=O)[C@@H]2OC(C)=O)cc1 (stereo partly shown) [Compound 8] = -0.36
CC(=O)OCC1O[C@@H]([S][Au-][P+](c2ccccc2)(c2ccccc2)c2ccccc2)C(OC(C)=O)[C@@H](OC(C)=O)[C@@H]1OC(C)=O (stereo partly shown) [Compound 37] = > 3.87
C[P+](C)(C)[Au-][Cl] [Compound 28, (Trimethylphosphine) gold chloride] = 0.16

Hello, please tell me recorded logP for this one: COc1ccc([P+]([Au-][S][C@@H]2OC(COC(C)=O)[C@@H](OC(C)=O)[C@H](OC(C)=O)C2OC(C)=O)(c2ccc(OC)cc2)c2ccc(OC)cc2)cc1 (stereo partly shown) [Compound 38]
> 3.03

Hello, please tell me recorded logP for this one: CC[P+](CC)(CC)[Au-][S][C@@H]1OC(CO)[C@@H](O)[C@H](O)C1NC(C)=O (stereo partly shown) [Compound 12]
-0.89

Hello, please tell me recorded logP for this one: CCCC[P+](CCCC)(CCCC)[Au-][S][C@@H]1OC(COC(C)=O)[C@@H](OC(C)=O)[C@H](OC(C)=O)C1OC(C)=O (stereo partly shown) [Compound 36]
> 4.32

Hello, please tell me recorded logP for this one: CC[P+](CC)(CC)[Au-][S]c1ccc(C(F)(F)F)cc1 [Compound 23]
> 3

Hello, please tell me recorded logP for this one: CC(=O)OCC1O[C@@H]([S][Au-][P+](C)(C)C)C(OC(C)=O)[C@@H](OC(C)=O)[C@@H]1OC(C)=O (stereo partly shown) [Compound 35]
0.35

---

Assay: Log P determination (n-octanol/water, FAAS)
Details: Log P, n-octanol/water, gold by FAAS
Procedure: Log P Determination: Calibration curves. Milli-Q Water (150 mL) was added to n-octanol (150 mL), and the mixture was stirred for 3 days to allow both phases to reach saturation. […] The absorbance data were plotted against Au concentration, and the resulting calibration curve was used for determining the concentration of the analogs in the aqueous phase. […] Log P was calculated as follows: log P=log[compound]oct/[compound]water
# logP per record follows
Give your answer as a number; write no unit.

These recorded examples may help you get a feel for the data.
CC[PH](CC)(CC)[Au][S][C@@H]1OC(COC(C)=O)[C@@H](OC(C)=O)[C@H](OC(C)=O)C1NC(C)=O (stereo partly shown) = 0.26
CC[P+](CC)(CC)[Au-][S]CC(=O)OC = 1.75

Next compound, please.
Hello, please tell me recorded logP for this one: "CC[P+](CC)(CC)[Au-][S]CC(F)(F)F"
2.08
